system: MOLT-4; assay: NCI tumour cell line growth inhibition, 48 h
Calls of active or inactive are those of the source. Cut-off read from the data, not from the text of the source: active = GI50 up to about 1.1 µM and inactive = higher.
Outcome field: choose from active, inactive

These solved cases illustrate the format of a correct answer.
CCC1OC2C(CC=C(C)C)=C3OC(C)(O)C(C)(CC)C(OC(=O)c4ccccc4)C3=C3OC(=O)C=C1C32 (stereo unspecified) ... inactive
CC(=O)NN/C=N/C(C#N)=C(\N)C#N ... inactive
O=C(Cn1c(=O)oc2ccccc21)N(c1ccccc1)c1ccccc1 ... inactive
COc1cccc(/C=N\NC(=O)C(C)SC(C)C(=O)N/N=C/c2cccc(OC)c2)c1 (stereo unspecified) ... inactive

Next compound, please.
Could you please tell me the result logged for "NC1=C(Br)C(=O)c2ncccc2C1=O" in this assay?
inactive
